Ref: paper PMC7284125

# Tested on: S. mansoni adult worms
# experiment.notes: Motility assay on adult parasites (pixel displacement, relative to DMSO control)
# Type: cell-based, Schistosoma mansoni
# measurement.parameters: secondary screen, 10 μM, D5, Male adult worms
Rule: Fractional motility below -0.6 gives condition met. Equal to or above -0.6 gives condition not met.

Record excerpt, results attached:
> print(dat)
                                   compound        label.class
1       COCCCC/C(=N\OCCN)c1ccc(C(F)(F)F)cc1  condition not met
2  C=CC(=O)N1CCC[C@@H](n2nc(-c3ccc(Oc4ccccc4)cc3)c3c(N)ncnc32)C1  condition not met
3  CNCc1ccc(C)c(NC(=O)c2ccc(Nc3nc(-c4ccccc4)c4ccccc4n3)cc2)c1  condition not met
4  COc1cc(N2CCC(N)CC2)ccc1Nc1ncc(Cl)c(-c2c[nH]c3ccccc23)n1  condition not met
5          O=C(/C=C/c1ccc2ccccc2n1)c1ccncc1  condition not met

Exercise: Report whether reported Fractional motility is lower than -0.6 (strictly) for "CNCc1ccc(-c2cc(-c3nc(-c4ccc(S(=O)(=O)C(C)C)cc4)cnc3N)on2)cc1"
Key: condition met

Exercise: Now this one: "CN(C)[C@@H](CCOc1cccc2ccccc12)c1ccccc1"
Key: condition not met

Exercise: Now this one: "Cc1cc(Nc2ncc(Cl)c(Nc3ccccc3S(=O)(=O)C(C)C)n2)c(OC(C)C)cc1C1CCNCC1"
Key: condition not met

Exercise: Now this one: "C=CC(=O)Nc1cccc(Oc2nc(Nc3ccc(N4CCN(C)CC4)cc3OC)ncc2Cl)c1"
Key: condition not met

Exercise: Now this one: "CCCCCCCCOc1ccccc1C(=O)Nc1ccc(C(=O)OCC[N+](C)(CC)CC)cc1"
Key: condition met
